For each of the binders below, state its pIC50.
biological target: receptor binding domain (RBD) portion of the SARS-CoV-2 Spike protein (amino acids Arg319-Phe541) ex (SARS-CoV-2)
Numbers only, as −log10 of the molar value.

List reported pIC50 for each of these binders:
1. mAb10971 (antibody, V domains shown) VH: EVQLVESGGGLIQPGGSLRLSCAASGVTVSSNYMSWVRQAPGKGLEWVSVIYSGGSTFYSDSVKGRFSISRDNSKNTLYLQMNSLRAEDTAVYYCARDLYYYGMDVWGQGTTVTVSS VL: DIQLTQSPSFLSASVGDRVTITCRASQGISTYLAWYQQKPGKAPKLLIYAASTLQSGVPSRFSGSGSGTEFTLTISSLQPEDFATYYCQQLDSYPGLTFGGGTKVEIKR
2. mAb10913 (antibody, V domains shown) VH: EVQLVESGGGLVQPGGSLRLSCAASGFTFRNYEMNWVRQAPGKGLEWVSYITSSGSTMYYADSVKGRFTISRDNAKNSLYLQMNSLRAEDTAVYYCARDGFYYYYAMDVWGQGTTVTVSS VL: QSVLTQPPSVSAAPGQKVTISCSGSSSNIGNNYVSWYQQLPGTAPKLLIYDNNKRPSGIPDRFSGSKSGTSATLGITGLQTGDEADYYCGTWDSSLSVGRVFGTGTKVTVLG
3. mAb10984 (antibody, V domains shown) VH: EVQLVESGGGLVQPGGSLRLSCAASGLTVNRNYMSWVRQAPGKGLEWVSLIYSGGSTYYADSVKGRFTISRDNSKNTLYLQMNSLRLEDTAVYYCARGELGIPYGMDVWGQGTTVTVSS VL: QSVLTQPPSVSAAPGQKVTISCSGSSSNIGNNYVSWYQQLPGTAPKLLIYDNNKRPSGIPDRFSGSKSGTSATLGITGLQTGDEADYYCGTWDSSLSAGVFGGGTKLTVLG

-- reply
1: 9.83; 2: 9.66; 3: 10.11
